study-system: T1, His-ICAP1 (49–200), wild type (human, UniProt O14713 49-200)
T1 sequence (looked up): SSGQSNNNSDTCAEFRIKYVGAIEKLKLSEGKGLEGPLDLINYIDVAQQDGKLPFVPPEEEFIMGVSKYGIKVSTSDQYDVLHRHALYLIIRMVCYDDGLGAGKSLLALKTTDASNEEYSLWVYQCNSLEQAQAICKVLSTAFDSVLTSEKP
assay-overview: pull-down
No end group written: not given here.
property: binding result

Here are 4 binders together with their reported answers.
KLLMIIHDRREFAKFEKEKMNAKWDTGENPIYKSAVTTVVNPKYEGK (domain or fragment, UniProt P05556 752-798, looked up, also: GST fusion) [GST-integrin β1 fusion protein (residues 752 to 798), wild type] | binds
QSHFIPALFAPSPLEAIKTNVINPAYATE (domain or fragment, human, UniProt O00522 170-198, looked up) [GST-KRIT1 (residues 170–198) R179A/R185A] | binds
QSHFIPALFRPSPLERIKTNVIAPAAATE (domain or fragment, human, UniProt O00522 170-198, looked up) [GST-KRIT1 (residues 170–198) N192A/Y195A] | binds
QSHFIPDLFRPSDLERIKTNVINPAYATE (domain or fragment, human, UniProt O00522 170-198, looked up) [GST-KRIT1 (residues 170–198) A176D/P182D] | binds

Task: Returns the measured binding result for the input binder. Input: QSHFIPALFRPSPLERIKTNVINPAYATE (domain or fragment, human, UniProt O00522 170-198, looked up) [GST-KRIT1 (residues 170–198), wild type]
Result: binds

meta.source: paper PMC3684052
